Data provenance is ChEMBL document CHEMBL1146163.

tested on: Rattus norvegicus; test: Effect on glucose normalization in po dosed ZDF rat after 7 days; format: functional; details: 168 h, read-out: MED
Reported Metric: minimal effective dose (mg/kg)
Answer with a number only, understood to be in mg/kg.

Worked examples, 3 compounds total:
Compound	Result Unit	minimal effective dose
CCCOC(=O)N1CCc2c(OCCc3nc(-c4ccccc4)oc3C)ccc(CCC(=O)[O-])c2C1.[Na+]	mg/kg	0.28
Cc1oc(-c2ccccc2)nc1CCOc1ccc(CCC(=O)O)c2c1CCN(C(=O)OCC(C)C)C2	mg/kg	0.25
CCCOC(=O)N1CCc2c(OCCc3nc(-c4ccc(-c5ccccc5)cc4)oc3C)ccc(CCC(=O)[O-])c2C1.[Na+]	mg/kg	0.19

Request: Request body: readout minimal effective dose, system Rattus norvegicus, query CN(CCOc1ccc(CC2SC(=O)NC2=O)cc1)c1ccccn1 (centres undefined) . Return the value.
Result: 0.25

====

Target: Peroxisome proliferator-activated receptor alpha (Homo sapiens)
Sequence (whole entry): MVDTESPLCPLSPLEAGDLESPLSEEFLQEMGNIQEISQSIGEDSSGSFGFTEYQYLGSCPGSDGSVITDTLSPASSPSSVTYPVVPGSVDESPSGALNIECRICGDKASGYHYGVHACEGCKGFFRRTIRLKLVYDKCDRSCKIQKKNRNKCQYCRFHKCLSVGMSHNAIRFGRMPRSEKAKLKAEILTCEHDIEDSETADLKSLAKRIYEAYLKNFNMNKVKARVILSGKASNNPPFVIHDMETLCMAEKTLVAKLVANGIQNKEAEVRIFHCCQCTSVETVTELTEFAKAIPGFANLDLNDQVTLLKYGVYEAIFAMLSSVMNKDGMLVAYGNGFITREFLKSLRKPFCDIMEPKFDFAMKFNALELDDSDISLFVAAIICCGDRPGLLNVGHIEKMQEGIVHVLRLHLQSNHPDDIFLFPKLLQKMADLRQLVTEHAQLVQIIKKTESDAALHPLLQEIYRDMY
Assay: Activity at human PPARalpha expressed in CV1 cells using GAL4 chimeric system relative to control
Type: cell-based
Conditions: CV-1
Measured Efficacy, listed per entry for reference.
Answer with a number only, understood to be in %.

Structure	Efficacy, %
Cc1oc(-c2ccc(-c3ccccc3)cc2)nc1CCOc1ccc(CCC(=O)O)c(CNC(=O)OC(C)C)c1	52
Cc1oc(-c2ccccc2)nc1CCOc1ccc(CCC(=O)O)c2c1CCN(C(=O)OCC(C)C)C2	40
CC(C)(Oc1ccc(C(=O)c2ccc(Cl)cc2)cc1)C(=O)O	75

Request: Param item = Cc1oc(-c2ccc(-c3ccccc3)cc2)nc1CCOc1ccc(CCC(=O)O)c2c1CCN(C(=O)OCC(C)(C)C)C2 ; retrieve measured Efficacy.
Result: 18

====

assay: Oral bioavailability in Beagle dog at 10 mg/kg, po; type: ADME, organism-based, Canis lupus familiaris; settings: in vivo
Reported Metric: bioavailability (%)
Answer with a number only, understood to be in %.

Request: Param item = CCCOC(=O)N1CCc2c(OCCc3nc(-c4ccc(-c5ccccc5)cc4)oc3C)ccc(CCC(=O)[O-])c2C1.[Na+] ; retrieve measured bioavailability.
Result: 37

====

test system: Mus musculus; test: Reduction of glucose level in db/db mouse at 30 mg/kg, po after 7 days relative to control; assay type: functional; design: scale not given: the % may be the effect or the level left
Measured Activity, listed per entry for reference.

Compound	Activity
CCCOC(=O)N1CCc2c(OCCc3nc(-c4ccccc4)oc3C)ccc(CCC(=O)O)c2C1	62%
Cc1oc(-c2ccccc2)nc1CCOc1ccc(CCC(=O)O)c2c1CCN(C(=O)OCC(C)C)C2	27%
Cc1oc(-c2ccc(-c3ccccc3)cc2)nc1CCOc1ccc(CCC(=O)[O-])c2c1CCN(C(=O)OCC(C)(C)C)C2.[Na+]	49%
CN(CCOc1ccc(CC2SC(=O)NC2=O)cc1)c1ccccn1 (stereo unspecified) [ROSIGLITAZONE]	29%
C#CCOC(=O)N1CCc2c(OCCc3nc(-c4ccccc4)oc3C)ccc(CCC(=O)O)c2C1	37%

Continue with the compound presented below.
Request: Param item = CCCOC(=O)N1CCc2c(OCCc3nc(-c4ccc(-c5ccccc5)cc4)oc3C)ccc(CCC(=O)[O-])c2C1.[Na+] ; retrieve measured Activity.
Result: 41%

====

assay: Half life in Beagle dog at 1 mg/kg, iv; assay type: ADME, organism-based, Canis lupus familiaris; set-up: dose 1 mg/kg, route intravenous; conditions: in vivo
Reported Metric: half-life (h)
Answer with a number only, understood to be in h.

Request: Param item = CCCOC(=O)N1CCc2c(OCCc3nc(-c4ccc(-c5ccccc5)cc4)oc3C)ccc(CCC(=O)[O-])c2C1.[Na+] ; retrieve measured half-life.
Result: 3.58

====

assay: Volume of distribution in F344 rat at 1 mg/kg, iv; type: ADME, organism-based; set-up: dose 1 mg/kg, route intravenous; conditions: in vivo, read-out: Vdss
Reported Metric: Vd (L/kg)
Answer with a number only, understood to be in L/kg.

Request: Param item = CCCOC(=O)N1CCc2c(OCCc3nc(-c4ccc(-c5ccccc5)cc4)oc3C)ccc(CCC(=O)[O-])c2C1.[Na+] ; retrieve measured Vd.
Result: 0.59

====

molecular target: Peroxisome proliferator-activated receptor gamma (Homo sapiens, UniProt P37231)
Sequence (P37231 whole entry): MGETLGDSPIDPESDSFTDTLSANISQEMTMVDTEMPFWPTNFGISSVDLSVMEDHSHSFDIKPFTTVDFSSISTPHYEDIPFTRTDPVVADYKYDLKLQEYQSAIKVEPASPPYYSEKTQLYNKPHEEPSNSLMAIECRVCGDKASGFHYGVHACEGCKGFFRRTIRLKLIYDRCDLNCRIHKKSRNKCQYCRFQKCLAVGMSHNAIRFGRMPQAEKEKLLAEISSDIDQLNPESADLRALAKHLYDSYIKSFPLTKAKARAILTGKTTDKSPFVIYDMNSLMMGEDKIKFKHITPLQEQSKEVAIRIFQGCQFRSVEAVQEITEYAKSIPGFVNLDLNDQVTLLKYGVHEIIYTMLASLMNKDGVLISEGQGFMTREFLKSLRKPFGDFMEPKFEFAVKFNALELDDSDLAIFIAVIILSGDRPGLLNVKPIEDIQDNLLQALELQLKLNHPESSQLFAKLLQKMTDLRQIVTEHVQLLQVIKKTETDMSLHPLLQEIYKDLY
Reported Metric: pEC50
Reminder that pEC50 means the negative base-10 logarithm of the concentration expressed in mol/L.

Worked examples, 4 molecules total:
Structure	pEC50
CCCOC(=O)N1CCc2c(OCCc3nc(-c4ccc(-c5ccccc5)cc4)oc3C)ccc(CCC(=O)O)c2C1	8.52
C#CCOC(=O)N1CCc2c(OCCc3nc(-c4ccccc4)oc3C)ccc(CCC(=O)O)c2C1	7.11
Cc1oc(-c2ccc(-c3ccccc3)cc2)nc1CCOc1ccc(CCC(=O)O)c2c1CCN(C(=O)OCC(C)(C)C)C2	8.05
CCCOC(=O)N1CCc2c(OCCc3nc(-c4ccccc4)oc3C)ccc(CCC(=O)O)c2C1	7.92

Continue with the molecule presented below.
Request: Param item = Cc1oc(-c2ccccc2)nc1CCOc1ccc(CCC(=O)O)c2c1CCN(C(=O)OCC(C)C)C2 ; retrieve measured pEC50.
Result: 8.10

====

Measured Efficacy, listed per entry for reference.
biological target: Peroxisome proliferator-activated receptor alpha (Homo sapiens) (UniProt Q07869); assay: Activity at human PPARalpha expressed in CV1 cells using GAL4 chimeric system relative to control; type: cell-based; conditions: CV-1
Include the unit right after the number.

Worked examples, 4 molecules total:
Molecule	Recorded Measurement
Cc1oc(-c2ccccc2)nc1CCOc1ccc(C[C@H](Nc2ccccc2C(=O)c2ccccc2)C(=O)O)cc1	66%
CCCOC(=O)N1CCc2c(OCCc3nc(-c4ccccc4)oc3C)ccc(CCC(=O)O)c2C1	47%
Cc1c(C)c2c(c(C)c1O)CCC(C)(COc1ccc(CC3SC(=O)NC3=O)cc1)O2 (stereo not given)	0%
CCCOC(=O)N1CCc2c(OCCc3nc(-c4ccc(-c5ccccc5)cc4)oc3C)ccc(CCC(=O)O)c2C1	27%

Request: Param item = C#CCOC(=O)N1CCc2c(OCCc3nc(-c4ccccc4)oc3C)ccc(CCC(=O)O)c2C1 ; retrieve measured Efficacy.
Result: 38%

====

test: Half life in F344 rat at 1 mg/kg, iv; assay type: ADME, organism-based; design: dose 1 mg/kg, route intravenous; conditions: in vivo
Reported Metric: half-life (h)
Answer with a number only, understood to be in h.

Request: Param item = CCCOC(=O)N1CCc2c(OCCc3nc(-c4ccc(-c5ccccc5)cc4)oc3C)ccc(CCC(=O)[O-])c2C1.[Na+] ; retrieve measured half-life.
Result: 5
